Origin of measurements: BigSolDB 2.1

PARTICULARS: in DMAc, 310.65 K

# CHEMICAL_STRING, solubility (mole fraction)
data = [
    ("O=C(O)c1ccccc1C(=O)O", 0.249),
]

----------
PARTICULARS: in NMP, 305.15 K

# CHEMICAL_STRING, solubility (mole fraction)
measured = [
    ("O=C(O)c1ccccc1C(=O)O", 0.0988),
]

----------
PARTICULARS: in propionic acid, 326.05 K
MEASURED_ENDPOINT: solubility (mole fraction)

# CHEMICAL_STRING, DATA_VALUE
records = [
    ("Cc1ccccc1C(=O)O", 0.334),
]

----------
PARTICULARS: in n-methylformamide, 294.35 K

# CHEMICAL_STRING, solubility (mole fraction)
measured = [
    ("O=C(O)c1ccccc1C(=O)O", 0.184),
]

----------
PARTICULARS: in DMF, 309.15 K

# CHEMICAL_STRING, solubility (mole fraction)
measured = [
    ("O=C(O)c1ccccc1C(=O)O", 0.42),
]

----------
PARTICULARS: in DMAc, 309.25 K

# CHEMICAL_STRING, solubility (mole fraction)
rows = [
    ("O=C(O)c1ccccc1C(=O)O", 0.238),
]

----------
PARTICULARS: in DMF, 323.35 K

# CHEMICAL_STRING, solubility (mole fraction)
data = [
    ("O=C(O)c1ccccc1C(=O)O", 0.464),
]

----------
PARTICULARS: in n-methylformamide, 322.35 K

# CHEMICAL_STRING, solubility (mole fraction)
rows = [
    ("Cc1ccccc1C(=O)O", 0.379),
]

----------
PARTICULARS: in propionic acid, 318.35 K

# CHEMICAL_STRING, solubility (mole fraction)
records = [
    ("Cc1ccccc1C(=O)O", 0.273),
]

----------
PARTICULARS: in NMP, 292.95 K

# CHEMICAL_STRING, solubility (mole fraction)
data = [
    ("Cc1ccccc1C(=O)O", 0.455),
]

----------
PARTICULARS: in acetonitrile, 334.35 K
MEASURED_ENDPOINT: solubility (mole fraction)

# CHEMICAL_STRING, DATA_VALUE
measured = [
    ("O=C(O)c1ccccc1C(=O)O", 0.0504),
]

----------
PARTICULARS: in DMAc, 319.15 K

# CHEMICAL_STRING, solubility (mole fraction)
data = [
    ("O=C(O)c1ccccc1C(=O)O", 0.314),
]

----------
PARTICULARS: in propionic acid, 316.15 K
MEASURED_ENDPOINT: solubility (mole fraction)

# CHEMICAL_STRING, MEASURED_ENDPOINT, DATA_VALUE
data = [
    ("O=C(O)c1ccccc1C(=O)O", "solubility (mole fraction)", 0.00524),
]

----------
PARTICULARS: in acetonitrile, 318.35 K

# CHEMICAL_STRING, solubility (mole fraction)
records = [
    ("O=C(O)c1ccccc1C(=O)O", 0.039),
]

----------
PARTICULARS: in DMAc, 343.15 K
MEASURED_ENDPOINT: solubility (mole fraction)

# CHEMICAL_STRING, DATA_VALUE
rows = [
    ("Cc1ccccc1C(=O)O", 0.362),
]
